B1: ANKRD40 (parent)
chain: VRIQNPSLRENDFIEIELDRQELT

Variants of: B1
Test Description: protein stability index of a GFP-peptide fusion (GPS, HEK-293T) (PSI 1-6); higher = more stable;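 note: lentivirally expressed fusions sorted by FACS into six bins by GFP to DsRed ratio, PSI derived from sequencing read proportions per bin multiplied by bin number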
Assay Setup: c terminus: a fixed tail appended
Readings of protein stability index for the listed variants

response.value for E15V (field: protein stability index) = 1.89
